Biological target: human FGF-R1 (Homo sapiens, UniProt P11362, C488A/C584S/L457V)
Sequence (P11362 456-766 L457V/C488A/C584S): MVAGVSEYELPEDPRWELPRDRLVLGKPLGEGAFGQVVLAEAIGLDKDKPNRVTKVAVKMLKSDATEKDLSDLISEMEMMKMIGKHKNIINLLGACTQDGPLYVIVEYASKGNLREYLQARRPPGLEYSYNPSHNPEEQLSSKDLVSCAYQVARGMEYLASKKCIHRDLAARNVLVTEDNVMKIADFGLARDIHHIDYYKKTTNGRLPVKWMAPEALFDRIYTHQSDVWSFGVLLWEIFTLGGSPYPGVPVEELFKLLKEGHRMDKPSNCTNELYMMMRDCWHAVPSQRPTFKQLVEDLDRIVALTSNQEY
Experiment: FGF-R spectrophotometric assay
# pKi per entry
For clarity, pKi is expressed as the negative log10 of concentration in mol/L.

Record CC(=O)Nc1cccc(N(C)c2ccc3c(/C=C/c4ccccc4)n[nH]c3c2)c1 . Reported pKi: 7.72

Record CC(=O)Nc1cc(C(=O)c2ccc3c(/C=C/c4ccccn4)n[nH]c3c2)ccc1C . Reported pKi: 8.46

Record O=C(Nc1cccc(Cl)c1)c1ccccc1Sc1ccc2c(/C=C/c3ccccn3)n[nH]c2c1 . Reported pKi: 7.62

Record O=C(Nc1cccc(C(=O)c2ccc3c(/C=C/c4ccccn4)n[nH]c3c2)c1)c1ccccc1 . Reported pKi: 7.19

Record CCn1nc(C)cc1C(=O)Nc1cc(Nc2ccc3c(/C=C/c4ccccn4)n[nH]c3c2)c(F)cc1C . Reported pKi: 7.85

Record C=CCn1nc(C)cc1C(=O)Nc1cc(C(=O)c2ccc3c(/C=C/c4ccccn4)n[nH]c3c2)ccc1C . Reported pKi: 7.92

Record CN(c1cccc(NC(=O)c2ccccc2)c1)c1ccc2c(/C=C/c3ccccc3)n[nH]c2c1 . Reported pKi: 7.51

Record Cc1cc(C(=O)Nc2cccc(C(=O)c3ccc4c(/C=C/c5ccccn5)n[nH]c4c3)c2)n(C(C)C)n1 . Reported pKi: 8.47

Record CCONC(=O)c1ccccc1Sc1ccc2c(/C=C/c3ccccn3)n[nH]c2c1 . Reported pKi: 7.12

Record Cc1cc(C(=O)Nc2cccc(C(=O)c3ccc4c(/C=C/c5ccccn5)n[nH]c4c3)c2)n(C)n1 . Reported pKi: 7.05

Record C(=C\c1n[nH]c2cc(Oc3ccccc3)ccc12)/c1ccccc1 [Example 8(a), 3-(E-Styryl)-6-phenoxy-1H-indazole] . Reported pKi: 7.38

Record CONC(=O)c1ccccc1Sc1ccc2c(/C=C/c3ccccn3)n[nH]c2c1 [Example 35(r)] . Reported pKi: 7.70

Record CN(c1cccc(N)c1)c1ccc2c(/C=C/c3ccccc3)n[nH]c2c1 . Reported pKi: 4.47

Record CCn1nc(C)cc1C(=O)Nc1cccc(Oc2ccc3c(/C=C/c4ccccn4)n[nH]c3c2)c1 . Reported pKi: 7.85

Record CSc1cc(O)ccc1-c1ccc2c(-c3nc4ccccc4[nH]3)n[nH]c2c1 . Reported pKi: 6.80

Record O=C(NNc1ccccn1)c1ccccc1Sc1ccc2c(/C=C/c3ccccn3)n[nH]c2c1 . Reported pKi: 7.04

###

# Ki per entry
Biological target: CDK2/Cyclin A (Homo sapiens)
Assay: CDK2/Cyclin A assay ([32P]ATP, Rb fragment)
Format: biochemical
Conditions: Table 2
Write down the numeric answer in nM and omit the unit.

Recorded Ki, per entry:
INSERT INTO results (compound, experimental_readout, quantity_unit, recorded_value) VALUES
  ('COc1cc(O)ccc1-c1ccc2c(-c3nc4ccccc4[nH]3)n[nH]c2c1', 'Ki', 'nM', 83),
  ('CCc1cc(O)ccc1-c1ccc2c(-c3nc4ccccc4[nH]3)n[nH]c2c1 [Example 24(e)]', 'Ki', 'nM', 30);

Would you kindly look at the next entry?
Record CNC(=O)c1cccc2[nH]c(-c3n[nH]c4cc(-c5ccc(O)cc5OC)ccc34)nc12 . Reported Ki: 79

###

Biological target: unphosphorylated VEGF-R2Δ50 (FLVK) (Homo sapiens, UniProt P35968, DEL940-989/E990V)
Sequence (P35968 with tags, fused parts or gaps DEL940-989/E990V limits assumed): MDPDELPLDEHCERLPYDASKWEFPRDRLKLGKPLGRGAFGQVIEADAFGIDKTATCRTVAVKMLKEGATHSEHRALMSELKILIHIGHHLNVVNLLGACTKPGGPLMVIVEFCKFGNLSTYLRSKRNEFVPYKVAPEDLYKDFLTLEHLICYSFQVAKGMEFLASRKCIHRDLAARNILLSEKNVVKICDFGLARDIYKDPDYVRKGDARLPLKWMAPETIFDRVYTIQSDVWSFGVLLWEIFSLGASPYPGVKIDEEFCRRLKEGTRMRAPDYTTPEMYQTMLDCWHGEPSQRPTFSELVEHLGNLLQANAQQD
Test: VEGF-R2 coupled spectrophotometric assay, unphosphorylated VEGF-R2Δ50 (FLVK)
Conditions: FLVK Ki, Table 1
experimental.readout: Ki
State the value with its unit after it.

Recorded Ki, per entry:
INSERT INTO measurements (molecule, recorded_value) VALUES
  ('Cc1cnc(C(=O)Nc2cccc(Oc3ccc4c(/C=C/c5ccccc5)n[nH]c4c3)c2)s1', '30 pM'),
  ('O=C(Nc1cccc(Nc2ccc3c(/C=C/c4ccccc4)n[nH]c3c2)c1)c1ccccc1', '1300 pM');

Record CC(=O)c1cccc(C(=O)Nc2cccc(N(C)c3ccc4c(/C=C/c5ccc6c(c5)OCO6)n[nH]c4c3)c2)c1 [Example 16(e)] . Reported Ki: 1300 pM

Record CCn1nc(C)cc1C(=O)Nc1cccc(Oc2ccc3c(/C=C/c4ccccc4)n[nH]c3c2)c1 [Example 30(e)] . Reported Ki: 370 pM

###

Assay: Mouse PK assay
Format: in vivo
Conditions: female, B6, plasma, oral
experimental.readout: AUC (ng·h/mL)
Write down the numeric answer in ng·h/mL and omit the unit.

Record COc1cc(-c2ccc3c(/C=C/c4ccc(OC)c(OC)c4)n[nH]c3c2)ccc1O . Reported AUC: 330

###

Assay: Determination of inhibitor concentration in mouse plasma after intraperitoneal and oral dosing
Format: in vivo
Details: female, PO, 50 mg/kg, vehicle CMC, read-out: Cmin (7 hr conc.)
experimental.readout: concentration at 7 hr (ng/mL)
Write down the numeric answer in ng/mL and omit the unit.

Record Cc1cc(C(=O)Nc2cccc(C(=O)c3ccc4c(/C=C/c5ccccn5)n[nH]c4c3)c2)n(C)n1.Cl [Example 59(b), Hydrochloride] . Reported concentration at 7 hr: 26900

###

# concentration at 7 h per entry
Assay: Determination of inhibitor concentration in mouse plasma after intraperitoneal and oral dosing
Assay type: in vivo
Conditions: female, PO, 50 mg/kg, vehicle PEG400:H2O pH 2.3 30:70, read-out: Cmin (7 hr conc.)
Write down the numeric answer in ng/mL and omit the unit.

Recorded concentration at 7 h, per entry:
INSERT INTO measurements (compound, experimental_readout, quantity_unit, recorded_value) VALUES
  ('CCn1nc(C)cc1C(=O)Nc1cccc(C(=O)c2ccc3c(/C=C/c4ccccn4)n[nH]c3c2)c1', 'concentration at 7 h', 'ng/mL', 2460),
  ('O=C(NC1CCC1)c1ccccc1Sc1ccc2c(/C=C/c3ccccn3)n[nH]c2c1', 'concentration at 7 h', 'ng/mL', 321),
  ('CC(C)NC(=O)c1ccccc1Sc1ccc2c(/C=C/c3ccccn3)n[nH]c2c1', 'concentration at 7 h', 'ng/mL', 13);

Record O=C(Nc1nccs1)c1ccccc1Sc1ccc2c(/C=C/c3ccccn3)n[nH]c2c1 . Reported concentration at 7 h: 1

###

Assay: Human liver microsome (HLM) assay
Format: in vitro ADME
Settings: human liver microsomes, 5 μM test compound
experimental.readout: % remain (HLM, 2 h) (%)
Write down the numeric answer in % and omit the unit.

Recorded % remain (HLM, 2 h), per entry:
INSERT INTO results (compound, quantity_unit, recorded_value) VALUES
  ('O=C(N[C@@H]1C[C@H]1c1ccccc1)c1ccccc1Sc1ccc2c(/C=C/c3ccccn3)n[nH]c2c1 (racemic) [Example 34]', '%', 28),
  ('O=C(c1cccc(NC(=O)c2ccc(Cl)s2)c1)c1ccc2c(/C=C/c3ccccn3)n[nH]c2c1 [Example 41(o)]', '%', 94),
  ('O=C(Nc1cccc(Cl)c1)c1ccccc1Sc1ccc2c(/C=C/c3ccccn3)n[nH]c2c1 [Example 33(d)]', '%', 22),
  ('C[C@@H]1C[C@H]1C(=O)Nc1cccc(C(=O)c2ccc3c(/C=C/c4ccccn4)n[nH]c3c2)c1 (racemic) [Example 41(h)]', '%', 8);

Record CC(C)=CC(=O)Nc1cccc(C(=O)c2ccc3c(/C=C/c4ccccn4)n[nH]c3c2)c1 [Example 41(dd)] . Reported % remain (HLM, 2 h): 7

Record CCCn1nc(C)cc1C(=O)Nc1cccc(C(=O)c2ccc3c(/C=C/c4ccccn4)n[nH]c3c2)c1 [Example 41(r)] . Reported % remain (HLM, 2 h): 83

###

Experiment: Determination of inhibitor concentration in mouse plasma after intraperitoneal and oral dosing
Type: in vivo
Conditions: IP, 25 mg/kg, vehicle PEG400:H2O pH 2.3 30:70
experimental.readout: AUClast
State the value with its unit after it.

Recorded AUClast, per entry:
INSERT INTO measurements (compound, recorded_value) VALUES
  ('O=C(Nc1nccs1)c1ccccc1Sc1ccc2c(/C=C/c3ccccn3)n[nH]c2c1', '159 ng·h/mL'),
  ('O=C(Nc1cccc(Oc2ccc3c(/C=C/c4ccccn4)n[nH]c3c2)c1)c1ccccc1', '47538 ng·h/mL'),
  ('CCn1nc(C)cc1C(=O)Nc1cccc(Oc2ccc3c(/C=C/c4ccccn4)n[nH]c3c2)c1', '237784 ng·h/mL'),
  ('O=C(NC1CC1)c1ccccc1Sc1ccc2c(/C=C/c3ccccn3)n[nH]c2c1 [Example 33(e)]', '14323 ng·h/mL'),
  ('CC(C)NC(=O)c1ccccc1Sc1ccc2c(/C=C/c3ccccn3)n[nH]c2c1', '2840 ng·h/mL');

Record CCNC(=O)c1ccccc1Sc1ccc2c(/C=C/c3ccccn3)n[nH]c2c1 . Reported AUClast: 951 ng·h/mL

Record CCOCCNC(=O)c1ccccc1Sc1ccc2c(/C=C/c3ccccn3)n[nH]c2c1 [Example 35(z)] . Reported AUClast: 837 ng·h/mL

Record CCn1nc(C)cc1C(=O)Nc1cccc(C(=O)c2ccc3c(/C=C/c4ccccn4)n[nH]c3c2)c1 . Reported AUClast: 92823 ng·h/mL

Record CNC(=O)c1ccccc1Sc1ccc2c(/C=C/c3ccccn3)n[nH]c2c1 . Reported AUClast: 13813 ng·h/mL

Record O=C(Nc1ccccc1)c1ccccc1Sc1ccc2c(/C=C/c3ccccn3)n[nH]c2c1 . Reported AUClast: 697 ng·h/mL

Record O=C(Nc1cc(Nc2ccc3c(/C=C/c4ccccc4)n[nH]c3c2)ccc1F)c1ccccc1 . Reported AUClast: 236 ng·h/mL

Record O=C(NC1CCC1)c1ccccc1Sc1ccc2c(/C=C/c3ccccn3)n[nH]c2c1 . Reported AUClast: 9408 ng·h/mL

Record CCCNC(=O)c1ccccc1Sc1ccc2c(/C=C/c3ccccn3)n[nH]c2c1 . Reported AUClast: 2032 ng·h/mL
